Exercise: for every item that follows, state its recorded protein stability index.
B1: RHOBTB3 (parent)
chain: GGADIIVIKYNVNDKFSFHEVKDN

# Variants of: B1
# assay-procedure: protein stability index of a GFP-peptide fusion (GPS, HEK-293T) (PSI 1-6); higher = more stable;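 further: lentivirally expressed fusions sorted by FACS into six bins by GFP to DsRed ratio, PSI derived from sequencing read proportions per bin multiplied by bin number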
# measurement-conditions: c terminus: a fixed tail appended
Give bare numbers.

Illustrative cases are given below, each with its answer.
In [3]: df
Out[3]:
   variant_key  recorded_value
0          A3W            2.05
1          I8D            3.81
2         S17R            2.35
3         Y10G            2.19
4         N11V            3.99
5         S17K            3.18

For each of the variants below, state protein stability index.
1. V21G
2. E20V
3. G1M
4. N13Y
5. Y10K

[3.4, 2.1, 1.97, 1.67, 1.82]
